System: secretion of gastric fluids
Assay: anti-secretory activity in pylorus-ligated rats (method of Shay et al.)
Type: in vivo, male albino Wistar rats
Settings: Rattus norvegicus, intraduodenal, 5 h, i.d., 100 mg./kg.; read-out: % Inhibition of Free Acid
Method: In standard biological test procedures, described generally by Shay et al., Gastroenterology 5, 43 (1945) and 26, 906 (1954) and by Selmici et al., Acta Physiol. Acad. Sci. Hung. […] Anti-secretory activity was determined in male albino Wistar rats weighing approximately 180 g. using the method described by Shay et al. which is described as follows: the rats were divided into medicated groups of at least five rats each and control groups of ten rats. […]
measured.attribute: inhibition in vivo at 100 mg/kg

Query: Give its inhibition in vivo at 100 mg/kg value. Item: Cc1c(C(O)C(F)(F)F)c2ccccc2n1CCC(N)=O (stereo not drawn) [Example 8F]
Response: 69%

Query: // same read-out, input: Cc1c(CO)c2cc(F)ccc2n1CCC(N)=O [Example 8E]
Response: 89%

Query: // same read-out, input: Cc1c(CO)c2ccccc2n1CC(N)=O [Example 8C]
Response: 30%

Query: // same read-out, input: Cc1c(CO)c2ccccc2n1CCC(N)=O [Example 8A]
Response: 100%

Query: // same read-out, input: Cc1c(CO)n(CCC(N)=O)c2ccccc12 [Example 8G]
Response: 33%

Query: // same read-out, input: Cc1c(CO)c2ccccc2n1CCCC(N)=O [Example 8B]
Response: 5%

Query: // same read-out, input: Cc1c(C=O)n(CCC(N)=O)c2ccccc12 [Example 4K]
Response: 37%

Query: // same read-out, input: Cc1c(C(=O)C(F)(F)F)c2ccccc2n1CCC(N)=O [Example 4L]
Response: 65%

Query: // same read-out, input: Cc1c(-c2ccccc2)n(CCC(N)=O)c2ccccc12 [Example 4M]
Response: 34%

----------
Tested on: reserpine-induced stomach ulceration
Assay: anti-ulcer activity, reserpine-induced ulcer test (method of Selmici et al.)
Assay type: in vivo, male, albino, Sprague-Dawley rats
Conditions: Rattus norvegicus, 18 h; oral, 25 mg./kg.
Bucketed by reported inhibition in vivo at 25 mg/kg, buckets being band 1: < 50%; band 2: ≥ 50% and < 90%; band 3: ≥ 90%

Query: Please report the category associated with Cc1c(C)n(CCC(=O)N(C)C)c2ccccc12 [Example 2] , nothing else.
Response: band 1

Query: // same read-out, input: Cc1c(C)n(CCC(N)=O)c2ccccc12 [Example 4A, β-(2,3-dimethyl-1-indole)propionamide]
Response: band 3

Query: // same read-out, input: Cc1c(C)n(CCC(N)=O)c2ccc(Cl)cc12 [Example 4B]
Response: band 3

Query: // same read-out, input: CCc1c(C)n(CCC(N)=O)c2ccccc12 [Example 4E]
Response: band 2

Query: // same read-out, input: Cc1c(C)n(CCC(N)=O)c2ccc(F)cc12 [Example 4C]
Response: band 3

Query: // same read-out, input: Cc1c(C)n(C(N)=O)c2ccc(Cl)cc12 [Example 5]
Response: band 1

Query: // same read-out, input: Cc1c(C)n(CC(N)=S)c2ccccc12 [Example 7A, 2,3-dimethyl-1-indolethioacetamide]
Response: band 2

Query: // same read-out, input: Cc1c(C)n(CCC(=O)NCCO)c2ccccc12 [Example 3D]
Response: band 1

Query: // same read-out, input: CCc1c(C)c2ccccc2n1CC(N)=O [Example 1C, 2-Ethyl-3-methyl-1-indoleacetamide]
Response: band 2

Query: // same read-out, input: Cc1c(C)n(CCCC(N)=O)c2ccccc12 [Example 1D, γ-(2,3-Dimethyl-1-indole)butyramide]
Response: band 2

Query: // same read-out, input: Cc1c(C)n(CC(N)=O)c2ccccc12 [Example 1A, 2,3-dimethyl-1-indoleacetamide]
Response: band 3
